# credit: patent US6624159B2

target: HCMV polymerase (Human cytomegalovirus, UniProt P08546); experiment: HCMV polymerase scintillation proximity assay (modified version); settings: modified SPA assay; compounds diluted in 100% DMSO, 4.5 mM DTT
Sequence (P08546 whole entry): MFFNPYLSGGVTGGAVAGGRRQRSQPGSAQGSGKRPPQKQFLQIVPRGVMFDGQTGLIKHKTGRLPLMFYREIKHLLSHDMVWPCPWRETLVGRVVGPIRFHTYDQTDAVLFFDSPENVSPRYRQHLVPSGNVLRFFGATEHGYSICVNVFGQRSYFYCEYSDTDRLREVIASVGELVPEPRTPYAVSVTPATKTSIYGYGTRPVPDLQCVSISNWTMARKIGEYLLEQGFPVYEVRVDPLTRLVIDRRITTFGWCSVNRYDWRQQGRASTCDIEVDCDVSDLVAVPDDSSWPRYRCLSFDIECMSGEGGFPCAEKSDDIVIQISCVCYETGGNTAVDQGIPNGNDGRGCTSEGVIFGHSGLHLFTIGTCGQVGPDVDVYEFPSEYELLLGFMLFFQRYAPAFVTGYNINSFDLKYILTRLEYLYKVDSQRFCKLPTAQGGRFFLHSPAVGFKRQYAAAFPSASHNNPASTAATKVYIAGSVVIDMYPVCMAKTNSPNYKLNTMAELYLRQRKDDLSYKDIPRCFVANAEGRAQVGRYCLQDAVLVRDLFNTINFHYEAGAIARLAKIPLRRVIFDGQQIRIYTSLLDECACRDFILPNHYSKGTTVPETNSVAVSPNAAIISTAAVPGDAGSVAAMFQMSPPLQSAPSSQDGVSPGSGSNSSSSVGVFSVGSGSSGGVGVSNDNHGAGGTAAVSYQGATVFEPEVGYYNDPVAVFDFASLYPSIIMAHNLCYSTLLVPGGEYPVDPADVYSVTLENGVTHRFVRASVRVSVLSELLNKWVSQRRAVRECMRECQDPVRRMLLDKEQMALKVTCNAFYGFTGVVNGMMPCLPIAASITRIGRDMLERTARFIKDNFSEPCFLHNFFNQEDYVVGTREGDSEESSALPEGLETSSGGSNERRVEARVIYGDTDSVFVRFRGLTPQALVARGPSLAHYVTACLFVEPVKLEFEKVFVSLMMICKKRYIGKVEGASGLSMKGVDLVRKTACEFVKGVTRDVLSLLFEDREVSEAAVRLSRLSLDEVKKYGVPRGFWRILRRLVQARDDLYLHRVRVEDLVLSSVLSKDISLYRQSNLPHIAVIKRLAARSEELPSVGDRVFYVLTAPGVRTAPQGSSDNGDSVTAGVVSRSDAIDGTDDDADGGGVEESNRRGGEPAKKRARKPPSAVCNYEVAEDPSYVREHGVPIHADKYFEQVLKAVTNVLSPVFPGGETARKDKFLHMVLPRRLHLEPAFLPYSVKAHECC
Structures can show the parent of a compound that is named as a salt.
Consider the following compounds and their measured IC50 readings.

1) O=C1Cn2cc(C(=O)NCc3ccc(Cl)cc3)c(=O)c3cc(CN4CCOCC4)cc(c32)N1 [Example 3] = 140 nM
2) O=C(NCc1ccc(Cl)cc1)c1cn2c3c(cc(CN4CCOCC4)cc3c1=O)OCCC2 [Example 1] = 650 nM

State its IC50 for this compound: CN1COc2cc(C#CCO)cc3c(=O)c(C(=O)NCc4ccc(Cl)cc4)cn1c23 [Example 15]
4190 nM

Query IC50 for O=C(NCc1ccc(Cl)cc1)c1cn2c3c(cc(CN4CCOCC4)cc3c1=O)N=C(NCc1ccccc1)C2 [Example 10]
310 nM

Entry O=C(NCc1ccc(Cl)cc1)c1cn2c3c(cc(CN4CCOCC4)cc3c1=O)CN(Cc1ccccc1)C2 [Example 12] needs its IC50 filled in; supply it.
1670 nM

# return recorded IC50 for input O=C(NCc1ccc(Cl)cc1)c1cn2c(=O)[nH]c3cc(CN4CCOCC4)cc(c1=O)c32 [Example 2]
770 nM

Using the record for O=C1CCn2cc(C(=O)NCc3ccc(Cl)cc3)c(=O)c3cc(CN4CCOCC4)cc(c32)N1 [Example 9] , state its measured IC50.
670 nM

Give the value of IC50 reported for the following: O=C(NCc1ccc(Cl)cc1)c1cn2c3c(cc(CN4CCOCC4)cc3c1=O)N=C(NCc1ccc(Cl)cc1)C2 [Example 4]
160 nM

Please report IC50 for the following compound: O=C(NCc1ccc(Cl)cc1)c1cn2c3c(cc(CN4CCOCC4)cc3c1=O)CN(Cc1ccccc1)C(=O)C2 [Example 14]
6000 nM

# return recorded IC50 for entry CN1C(=O)Cn2cc(C(=O)NCc3ccc(Cl)cc3)c(=O)c3cc(C#CCO)cc1c32 [Example 11]
1160 nM

For the compound CN1CCc2cc(C#CCO)cc3c(=O)c(C(=O)NCc4ccc(Cl)cc4)cn1c23 [Example 16] , give its reported IC50.
7950 nM

Please list IC50 recorded for the compound O=C(NCc1ccc(Cl)cc1)c1cn2c3c(cc(C#CCO)cc3c1=O)CC2CO (stereo not drawn) [Example 5]
3200 nM

Report IC50 for CC1C(=O)Nc2cc(CN3CCOCC3)cc3c(=O)c(C(=O)NCc4ccc(Cl)cc4)cn1c23 (stereo not drawn) [Example 8, hydrobromide]
430 nM

Tell me measured IC50 for O=C(NCc1ccc(Cl)cc1)c1cc2c3c(cc(CN4CCOCC4)cn3c1=O)CCC2 [Example 7] please.
4000 nM

Please supply the value of reported IC50 for the item CC1(C)Cc2cc(C#CCO)cc3c(=O)c(C(=O)NCc4ccc(Cl)cc4)cn1c23 [Example 6]
4000 nM
